Each recorded value in this set is attributed to patent US9096598B2.

Parameter: IC50. Scope: all listed entries.
molecular target: JAK3 (Homo sapiens, UniProt P52333); construct: recombinant purified GST-tagged catalytic domain for each enzyme; test: Jak Biochemical HTRF Assay (JAK3); settings: recombinant purified GST-tagged catalytic domain, [ATP] 2.9 μM, values given as range classes
Sequence (P52333 822-1111 limits assumed): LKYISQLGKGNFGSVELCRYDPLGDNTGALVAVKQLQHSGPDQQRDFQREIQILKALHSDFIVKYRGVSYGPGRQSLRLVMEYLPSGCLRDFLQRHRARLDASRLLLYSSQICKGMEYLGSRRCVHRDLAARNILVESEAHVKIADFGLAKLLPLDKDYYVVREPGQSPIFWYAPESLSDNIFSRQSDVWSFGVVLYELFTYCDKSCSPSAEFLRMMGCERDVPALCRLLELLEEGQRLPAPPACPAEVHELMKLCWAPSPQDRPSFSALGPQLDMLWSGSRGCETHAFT

Answered examples (4):
MOLECULE | IC50
C[C@@H](Nc1cncc(-c2c[nH]c3ncc(S(C)(=O)=O)cc23)c1)C(=O)NCC(F)(F)F | ≤ 10 nM
CC(C)NC(=O)c1cnc2[nH]cc(-c3cncc(N[C@@H](C(=O)NCC(F)(F)F)C(C)C)c3)c2c1 | ≤ 10 nM
CC(C)(Nc1cnnc(-c2c[nH]c3ncc(C(N)=O)cc23)n1)C(=O)NCC(F)(F)F | ≤ 10 nM
CC(C)[C@@H](Nc1cncc(-c2c[nH]c3ncc(Cl)cc23)c1)C(=O)NCC(F)(F)F [Example 1-51] | ≤ 10 nM

Reported IC50, molecule COCC(C)NC(=O)c1cnc2[nH]cc(-c3cncc(N[C@@H](C(=O)NCC(F)(F)F)C(C)C)c3)c2c1 (stereo partly shown) : ____
≤ 10 nM

Bench note: what IC50 did "CC(C)[C@H](Nc1cncc(-c2c[nH]c3ncc(OCCN(C)C)cc23)c1)C(=O)NCC(F)(F)F" show?
10 to 500 nM

Quick one: IC50 for "Cc1ncoc1C(=O)NCc1cnc2[nH]cc(-c3cncc(N[C@H](C(=O)NCC(F)(F)F)C(C)C)c3)c2c1" ?
10 to 500 nM
